This collection of values is drawn from the NIST ThermoML archive (doi:10.1021/acs.jced.9b00436).

# assay comment: an = ratio of the nth substance listed
# condition parameters: 323 K; 100 kPa; Liquid; Vibrating tube method; a2 = 2
property measured: mass density (kg/m3)

compound	mass density / kg/m3
CCCCCCCC[N+](CCCCCCCC)(CCCCCCCC)CCCCCCCC.[Br-] [tetraoctylammonium bromide] + CCCCCCCCCC(=O)O	913.9
C[N+](C)(C)CCO.[Cl-] [choline chloride] + OCC(O)CO	1177
CCCCCCCC[N+](C)(CCCCCCCC)CCCCCCCC.[Br-] [methyltrioctylammonium bromide] + CCCCCCCCCC(=O)O	925.3
C[N+](C)(C)CCO.[Cl-] [choline chloride] + OCCO	1100.1

----------
# assay comment: an = ratio of the nth substance listed
# condition parameters: 328 K; 100 kPa; Liquid; Vibrating tube method; a2 = 2
property measured: mass density (kg/m3)

compound	mass density [kg/m3]
C[N+](C)(C)CCO.[Cl-] [choline chloride] + OCC(O)CO	1173.1
CCCCCCCC[N+](C)(CCCCCCCC)CCCCCCCC.[Br-] [methyltrioctylammonium bromide] + CCCCCCCCCC(=O)O	923.1
CCCCCCCC[N+](CCCCCCCC)(CCCCCCCC)CCCCCCCC.[Br-] [tetraoctylammonium bromide] + CCCCCCCCCC(=O)O	911.8
C[N+](C)(C)CCO.[Cl-] [choline chloride] + OCCO	1096.7

----------
# assay comment: an = ratio of the nth substance listed
# condition parameters: 303 K; 100 kPa; Liquid; Frequency=5 MHz; Single path-length method; a2 = 2
property measured: speed of sound (m/s)

compound	property measured	value observed
CCCCCCCC[N+](CCCCCCCC)(CCCCCCCC)CCCCCCCC.[Br-] [tetraoctylammonium bromide] + CCCCCCCCCC(=O)O	speed of sound	1382
CCCCCCCC[N+](C)(CCCCCCCC)CCCCCCCC.[Br-] [methyltrioctylammonium bromide] + CCCCCCCCCC(=O)O	speed of sound	1375
C[N+](C)(C)CCO.[Cl-] [choline chloride] + OCC(O)CO	speed of sound	1963
C[N+](C)(C)CCO.[Cl-] [choline chloride] + OCCO	speed of sound	1871

----------
# assay comment: an = ratio of the nth substance listed
# condition parameters: 298 K; 100 kPa; Liquid; Falling or rolling sphere viscometry; a2 = 2
property measured: viscosity (mPa·s)

(1) C[N+](C)(C)CCO.[Cl-] [choline chloride] + OCCO
(2) C[N+](C)(C)CCO.[Cl-] [choline chloride] + OCC(O)CO
Problem: // which entry has the larger viscosity value, 1 or 2 ? State the label of the item chosen.
Result: 2
(2: 364.4 mPa·s, 1: 40.4 mPa·s)

----------
# assay comment: an = ratio of the nth substance listed
# condition parameters: 308 K; 100 kPa; Liquid; Falling or rolling sphere viscometry; a2 = 2
property measured: viscosity (mPa·s)

compound	viscosity / mPa·s
C[N+](C)(C)CCO.[Cl-] [choline chloride] + OCCO	27.9
CCCCCCCC[N+](CCCCCCCC)(CCCCCCCC)CCCCCCCC.[Br-] [tetraoctylammonium bromide] + CCCCCCCCCC(=O)O	350

(I) C[N+](C)(C)CCO.[Cl-] [choline chloride] + OCC(O)CO
(II) CCCCCCCC[N+](C)(CCCCCCCC)CCCCCCCC.[Br-] [methyltrioctylammonium bromide] + CCCCCCCCCC(=O)O
Problem: Short answer wanted: higher viscosity, I or II ? Returns: label corresponding to the selected item.
Result: II

----------
# assay comment: an = ratio of the nth substance listed
# condition parameters: 323 K; 100 kPa; Liquid; Falling or rolling sphere viscometry; a2 = 2
property measured: viscosity (mPa·s)

molecule	unit text	viscosity
CCCCCCCC[N+](C)(CCCCCCCC)CCCCCCCC.[Br-] [methyltrioctylammonium bromide] + CCCCCCCCCC(=O)O	mPa·s	132.4

(1) CCCCCCCC[N+](CCCCCCCC)(CCCCCCCC)CCCCCCCC.[Br-] [tetraoctylammonium bromide] + CCCCCCCCCC(=O)O
(2) C[N+](C)(C)CCO.[Cl-] [choline chloride] + OCCO
(3) C[N+](C)(C)CCO.[Cl-] [choline chloride] + OCC(O)CO
Problem: Hey, can you sort those molecules up there by viscosity, smallest first? The labels, placed in the requested order, form the answer.
Result: 2, 3, 1
(2: 17.2 mPa·s, 3: 81.6 mPa·s, 1: 156.9 mPa·s)

----------
# assay comment: an = ratio of the nth substance listed
# condition parameters: 298 K; 100 kPa; Liquid; Vibrating tube method; a2 = 2
property measured: mass density (kg/m3)

compound	unit text	value observed
C[N+](C)(C)CCO.[Cl-] [choline chloride] + OCCO	kg/m3	1114.5
CCCCCCCC[N+](CCCCCCCC)(CCCCCCCC)CCCCCCCC.[Br-] [tetraoctylammonium bromide] + CCCCCCCCCC(=O)O	kg/m3	930.6
CCCCCCCC[N+](C)(CCCCCCCC)CCCCCCCC.[Br-] [methyltrioctylammonium bromide] + CCCCCCCCCC(=O)O	kg/m3	942.2
C[N+](C)(C)CCO.[Cl-] [choline chloride] + OCC(O)CO	kg/m3	1191.7

----------
# assay comment: an = ratio of the nth substance listed
# condition parameters: 333 K; 100 kPa; Liquid; Vibrating tube method; a2 = 2
property measured: mass density (kg/m3)

compound	value observed
CCCCCCCC[N+](C)(CCCCCCCC)CCCCCCCC.[Br-] [methyltrioctylammonium bromide] + CCCCCCCCCC(=O)O	920.8
CCCCCCCC[N+](CCCCCCCC)(CCCCCCCC)CCCCCCCC.[Br-] [tetraoctylammonium bromide] + CCCCCCCCCC(=O)O	909.5
C[N+](C)(C)CCO.[Cl-] [choline chloride] + OCCO	1094.7
C[N+](C)(C)CCO.[Cl-] [choline chloride] + OCC(O)CO	1171.3

----------
# assay comment: an = ratio of the nth substance listed
# condition parameters: 313 K; 100 kPa; Liquid; Frequency=5 MHz; Single path-length method; a2 = 2
property measured: speed of sound (m/s)

molecule	speed of sound / m/s
CCCCCCCC[N+](CCCCCCCC)(CCCCCCCC)CCCCCCCC.[Br-] [tetraoctylammonium bromide] + CCCCCCCCCC(=O)O	1347
CCCCCCCC[N+](C)(CCCCCCCC)CCCCCCCC.[Br-] [methyltrioctylammonium bromide] + CCCCCCCCCC(=O)O	1341
C[N+](C)(C)CCO.[Cl-] [choline chloride] + OCC(O)CO	1941
C[N+](C)(C)CCO.[Cl-] [choline chloride] + OCCO	1848

----------
# assay comment: an = ratio of the nth substance listed
# condition parameters: 303 K; 100 kPa; Liquid; Falling or rolling sphere viscometry; a2 = 2
property measured: viscosity (mPa·s)

compound	unit text	viscosity
CCCCCCCC[N+](C)(CCCCCCCC)CCCCCCCC.[Br-] [methyltrioctylammonium bromide] + CCCCCCCCCC(=O)O	mPa·s	411.4

(A) CCCCCCCC[N+](CCCCCCCC)(CCCCCCCC)CCCCCCCC.[Br-] [tetraoctylammonium bromide] + CCCCCCCCCC(=O)O
(B) C[N+](C)(C)CCO.[Cl-] [choline chloride] + OCC(O)CO
(C) C[N+](C)(C)CCO.[Cl-] [choline chloride] + OCCO
Problem: Order the records by viscosity, with each subsequent value no larger than the one before. Returns: the labels listed in the requested order.
Result: A, B, C

----------
# assay comment: an = ratio of the nth substance listed
# condition parameters: 298 K; 100 kPa; Liquid; Frequency=5 MHz; Single path-length method; a2 = 2
property measured: speed of sound (m/s)

molecule	property measured	value observed
CCCCCCCC[N+](C)(CCCCCCCC)CCCCCCCC.[Br-] [methyltrioctylammonium bromide] + CCCCCCCCCC(=O)O	speed of sound	1393
CCCCCCCC[N+](CCCCCCCC)(CCCCCCCC)CCCCCCCC.[Br-] [tetraoctylammonium bromide] + CCCCCCCCCC(=O)O	speed of sound	1402
C[N+](C)(C)CCO.[Cl-] [choline chloride] + OCC(O)CO	speed of sound	1975
C[N+](C)(C)CCO.[Cl-] [choline chloride] + OCCO	speed of sound	1882

----------
# assay comment: an = ratio of the nth substance listed
# condition parameters: 308 K; 100 kPa; Liquid; Frequency=5 MHz; Single path-length method; a2 = 2
property measured: speed of sound (m/s)

Guide cases for speed of sound, answers given:
compound	property measured	value observed
C[N+](C)(C)CCO.[Cl-] [choline chloride] + OCCO	speed of sound	1860
CCCCCCCC[N+](C)(CCCCCCCC)CCCCCCCC.[Br-] [methyltrioctylammonium bromide] + CCCCCCCCCC(=O)O	speed of sound	1357

(A) C[N+](C)(C)CCO.[Cl-] [choline chloride] + OCC(O)CO
(B) CCCCCCCC[N+](CCCCCCCC)(CCCCCCCC)CCCCCCCC.[Br-] [tetraoctylammonium bromide] + CCCCCCCCCC(=O)O
Problem: Please choose the item with the lower speed of sound value from this pair: A and B Record your answer as the label of the chosen record.
Result: B
